Values were extracted from BigSolDB 2.1.

- condition details: in acetone, 293.15 K
readout name: solubility (mole fraction)

Problem: Tell me measured solubility (mole fraction) for `Cn1cc[n+](CCC[n+]2ccn(C)c2)c1.F[P-](F)(F)(F)(F)F.F[P-](F)(F)(F)(F)F` please.
Result: 0.0401

###

- condition details: in 2-butanone, 308.15 K
readout name: solubility (mole fraction)
// no unit, no text: just the number

Problem: Tell me measured solubility (mole fraction) for `Cn1cc[n+](CCC[n+]2ccn(C)c2)c1.F[P-](F)(F)(F)(F)F.F[P-](F)(F)(F)(F)F` please.
Result: 0.00524

###

- condition details: in water, 313.25 K
readout name: solubility (mole fraction)

Problem: Tell me measured solubility (mole fraction) for `Cn1cc[n+](CCC[n+]2ccn(C)c2)c1.F[P-](F)(F)(F)(F)F.F[P-](F)(F)(F)(F)F` please.
Result: 0.000366

###

- condition details: in acetylacetone, 334.65 K
readout name: solubility (mole fraction)
// no unit, no text: just the number

Problem: Tell me measured solubility (mole fraction) for `Cn1cc[n+](CCC[n+]2ccn(C)c2)c1.F[P-](F)(F)(F)(F)F.F[P-](F)(F)(F)(F)F` please.
Result: 0.0084

###

- condition details: in acetone, 306.15 K
readout name: solubility (mole fraction)

Problem: Tell me measured solubility (mole fraction) for `Cn1cc[n+](CCC[n+]2ccn(C)c2)c1.F[P-](F)(F)(F)(F)F.F[P-](F)(F)(F)(F)F` please.
Result: 0.0551

###

- condition details: in acetophenone, 317.35 K
readout name: solubility (mole fraction)
// no unit, no text: just the number

Problem: Tell me measured solubility (mole fraction) for `Cn1cc[n+](CCC[n+]2ccn(C)c2)c1.F[P-](F)(F)(F)(F)F.F[P-](F)(F)(F)(F)F` please.
Result: 0.000743

###

- condition details: in acetone, 315.15 K
readout name: solubility (mole fraction)
// no unit, no text: just the number

Problem: Tell me measured solubility (mole fraction) for `Cn1cc[n+](CCC[n+]2ccn(C)c2)c1.F[P-](F)(F)(F)(F)F.F[P-](F)(F)(F)(F)F` please.
Result: 0.0681

###

- condition details: in acetylacetone, 317.65 K
readout name: solubility (mole fraction)

Problem: Tell me measured solubility (mole fraction) for `Cn1cc[n+](CCC[n+]2ccn(C)c2)c1.F[P-](F)(F)(F)(F)F.F[P-](F)(F)(F)(F)F` please.
Result: 0.00411

###

- condition details: in cyclohexanone, 294.15 K
readout name: solubility (mole fraction)

Problem: Tell me measured solubility (mole fraction) for `Cn1cc[n+](CCC[n+]2ccn(C)c2)c1.F[P-](F)(F)(F)(F)F.F[P-](F)(F)(F)(F)F` please.
Result: 0.000222

###

- condition details: in water, 332.65 K
readout name: solubility (mole fraction)
// no unit, no text: just the number

Problem: Tell me measured solubility (mole fraction) for `Cn1cc[n+](CCC[n+]2ccn(C)c2)c1.F[P-](F)(F)(F)(F)F.F[P-](F)(F)(F)(F)F` please.
Result: 0.00104
